Tested on: Mus musculus
RUN DESCRIPTION: Anticonvulsant activity in ip dosed albino CF1 mouse assessed as time of peak effect for protection against 6 Hz psychomotor seizure
Assay type: functional
Each record here notes measured Time.
READOUT KIND: Time

structure_smiles_string=CC(C)[C@@H](N)C(=O)NCc1ccc(COc2cccc(F)c2)cc1 recorded_result="0.5 h"
structure_smiles_string=CC(C)(C)[C@@H](N)C(=O)NCc1ccccc1 recorded_result="0.25 h"
structure_smiles_string=CC(C)[C@@H](N)C(=O)NCc1ccc(F)cc1 recorded_result="0.25 h"
structure_smiles_string=CC(C)[C@@H](N)C(=O)NCc1ccccc1 recorded_result="0.25 h"
structure_smiles_string=CC(C)(C)[C@@H](N)C(=O)NCc1ccc(Cl)cc1 recorded_result="0.25 h"
structure_smiles_string=COC[C@@H](N)C(=O)NCc1ccc(OCc2cccc(F)c2)cc1 recorded_result="0.5 h"
structure_smiles_string=CC(C)[C@@H](N)C(=O)NCc1ccc(C(F)(F)F)cc1 recorded_result="0.5 h"
structure_smiles_string=CC(C)[C@@H](N)C(=O)NCc1ccc(OC(F)(F)F)cc1 recorded_result="0.5 h"
structure_smiles_string=CC(C)[C@@H](N)C(=O)NCc1ccc(Cl)cc1 recorded_result="0.25 h"

---

Tested on: Rattus norvegicus
RUN DESCRIPTION: Protective index, ratio of TD50 for po dosed albino Sprague-Dawley rat to ED50 for po dosed albino Sprague-Dawley rat by maximal electroshock test
Type: functional
Reported Ratio TD50/ED50 values for a set of compounds
READOUT KIND: Ratio TD50/ED50

structure_smiles_string=COC[C@@H](N)C(=O)NCc1ccc(COc2cccc(F)c2)cc1 readout_kind="Ratio TD50/ED50" recorded_result=>42
structure_smiles_string=CC(C)[C@@H](N)C(=O)NCc1ccc(F)cc1 readout_kind="Ratio TD50/ED50" recorded_result=>24
structure_smiles_string=CC(C)[C@@H](N)C(=O)NCc1ccc(OC(F)(F)F)cc1 readout_kind="Ratio TD50/ED50" recorded_result=>27
structure_smiles_string=CC(C)[C@@H](N)C(=O)NCc1ccc(C(F)(F)F)cc1 readout_kind="Ratio TD50/ED50" recorded_result=>38
structure_smiles_string=CC(C)[C@@H](N)C(=O)NCc1ccccc1 readout_kind="Ratio TD50/ED50" recorded_result=>45
structure_smiles_string=CC(C)(C)[C@@H](N)C(=O)NCc1ccccc1 readout_kind="Ratio TD50/ED50" recorded_result=>45
structure_smiles_string=COC[C@@H](N)C(=O)NCc1ccc(OCc2cccc(F)c2)cc1 readout_kind="Ratio TD50/ED50" recorded_result=>38

---

// reported log10 TD50 at 0.5 h per item
RUN DESCRIPTION: Neurotoxicity in ip dosed albino CF1 mouse assessed as median neurological impairing dose after 30 mins
Type: toxicity, organism-based
PROTOCOL CONDITIONS: in vivo
READOUT KIND: log10 TD50 at 0.5 h (log10 of the value in mg/kg)

compound=COC[C@H](N)C(=O)NCc1ccc(COc2cccc(F)c2)cc1 recorded_result=2.00
compound="COC[C@@H](NC(C)=O)C(=O)NCc1ccccc1 [LACOSAMIDE]" recorded_result=1.43
compound=CC(C)(C)[C@@H](N)C(=O)NCc1ccccc1 recorded_result=1.82
compound=CC(C)(C)[C@H](N)C(=O)NCc1ccccc1 recorded_result=2.02
compound=COc1ccc(CNC(=O)[C@H](N)C(C)C)cc1 recorded_result=1.48
compound=CC(C)(C)[C@@H](N)C(=O)NCc1ccc(C(F)(F)F)cc1 recorded_result=2.12
compound=CC(C)[C@@H](N)C(=O)NCc1ccc(Cl)cc1 recorded_result=1.87
compound="CCC1(c2ccccc2)C(=O)NC(=O)NC1=O [PHENOBARBITAL]" recorded_result=1.82
compound="O=C1NC(=O)C(c2ccccc2)(c2ccccc2)N1 [PHENYTOIN]" recorded_result=1.43
compound=CC(C)(C)[C@@H](N)C(=O)NCc1ccc(OCc2cccc(F)c2)cc1 recorded_result=2.48
compound=CC(C)[C@@H](N)C(=O)NCc1ccc(COc2cccc(F)c2)cc1 recorded_result=1.85
compound=C[C@@H](N)C(=O)NCc1ccccc1 recorded_result=2.00
compound=CC(C)[C@H](N)C(=O)NCc1ccc(COc2cccc(F)c2)cc1 recorded_result=2.00
compound=CC(C)(C)[C@@H](N)C(=O)NCc1ccc(COc2cccc(F)c2)cc1 recorded_result=2.00
compound=COC[C@@H](N)C(=O)NCc1ccc(COc2cccc(F)c2)cc1 recorded_result=1.48
compound=COC[C@@H](N)C(=O)NCc1ccc(OCc2cccc(F)c2)cc1 recorded_result=1.76
compound=COC[C@@H](N)C(=O)NCc1ccccc1.Cl recorded_result=1.48
compound=CC(C)[C@@H](N)C(=O)NCc1ccc(F)cc1 recorded_result=1.99

---

RUN DESCRIPTION: Toxicity in po dosed albino Sprague-Dawley rat assessed as behavioural toxicity
Format: organism-based
PROTOCOL CONDITIONS: in vivo
READOUT KIND: TD50

compound=CC(C)[C@@H](N)C(=O)NCc1ccccc1 readout_kind=TD50 recorded_result="> 500 mg/kg"
compound=CC(C)[C@@H](N)C(=O)NCc1ccc(COc2cccc(F)c2)cc1 readout_kind=TD50 recorded_result="> 30 mg/kg"
compound=COC[C@@H](N)C(=O)NCc1ccc(OCc2cccc(F)c2)cc1 readout_kind=TD50 recorded_result="> 500 mg/kg"
compound=CC(C)[C@H](N)C(=O)NCc1ccc(COc2cccc(F)c2)cc1 readout_kind=TD50 recorded_result="> 30 mg/kg"
compound=COc1ccc(CNC(=O)[C@H](N)C(C)C)cc1 readout_kind=TD50 recorded_result="> 30 mg/kg"
compound=CC(C)(C)[C@@H](N)C(=O)NCc1ccc(Cl)cc1 readout_kind=TD50 recorded_result="> 30 mg/kg"
compound=Cc1ccc(CNC(=O)[C@H](N)C(C)C)cc1 readout_kind=TD50 recorded_result="> 50 mg/kg"
compound=CC(C)(C)[C@@H](N)C(=O)NCc1ccc(C(F)(F)F)cc1 readout_kind=TD50 recorded_result="> 30 mg/kg"
compound=CC(C)(C)[C@@H](N)C(=O)NCc1ccc(OC(F)(F)F)cc1 readout_kind=TD50 recorded_result="> 30 mg/kg"
compound="COC[C@@H](NC(C)=O)C(=O)NCc1ccccc1 [LACOSAMIDE]" readout_kind=TD50 recorded_result="> 500 mg/kg"
compound=CC(C)[C@@H](N)C(=O)NCc1ccc(C(F)(F)F)cc1 readout_kind=TD50 recorded_result="> 500 mg/kg"
compound=CC(C)[C@@H](N)C(=O)NCc1ccc(-c2ccccc2)cc1 readout_kind=TD50 recorded_result="> 30 mg/kg"
compound=CC(C)(C)[C@@H](N)C(=O)NCc1ccc(OCc2cccc(F)c2)cc1 readout_kind=TD50 recorded_result="> 30 mg/kg"
compound="O=C1NC(=O)C(c2ccccc2)(c2ccccc2)N1 [PHENYTOIN]" readout_kind=TD50 recorded_result="> 3000 mg/kg"

---

Tested on: Mus musculus
RUN DESCRIPTION: Anticonvulsant activity in ip dosed NMRI mouse assessed as protection against maximal electroshock seizure after 30 mins
Type: functional
PROTOCOL CONDITIONS: 0.5 h
READOUT KIND: ED50 (mg/kg)

structure_smiles_string=COC[C@@H](N)C(=O)NCc1ccc(Br)cc1.Cl target_system="Mus musculus" recorded_result=31
structure_smiles_string=CC(C)[C@@H](N)C(=O)NCc1ccc(COc2cccc(F)c2)cc1 target_system="Mus musculus" recorded_result=12
structure_smiles_string=CC(C)[C@@H](N)C(=O)NCc1ccc(OCc2cccc(F)c2)cc1 target_system="Mus musculus" recorded_result=12
structure_smiles_string=COC[C@@H](N)C(=O)NCc1ccc(C(F)(F)F)cc1.Cl target_system="Mus musculus" recorded_result=19
structure_smiles_string=COC[C@H](N)C(=O)NCc1ccccc1 target_system="Mus musculus" recorded_result=64

---

Measured Time by item
System: Mus musculus
RUN DESCRIPTION: Neurotoxicity in ip dosed albino CF1 mouse assessed as time of peak effect for median neurological impairing
Type: toxicity, organism-based
PROTOCOL CONDITIONS: in vivo
READOUT KIND: Time (h)

structure_smiles_string=Cc1ccc(CNC(=O)[C@H](N)C(C)C)cc1 recorded_result=0.5
structure_smiles_string=CC(C)[C@@H](N)C(=O)NCc1ccc(COc2cccc(F)c2)cc1 recorded_result=0.5
structure_smiles_string=COC[C@@H](N)C(=O)NCc1ccc(COc2cccc(F)c2)cc1 recorded_result=0.5
structure_smiles_string=CC(C)[C@@H](N)C(=O)NCc1ccc(OC(F)(F)F)cc1 recorded_result=0.25
structure_smiles_string=CC(C)[C@@H](N)C(=O)NCc1ccccc1 recorded_result=0.25
structure_smiles_string=COC[C@@H](N)C(=O)NCc1ccc(OCc2cccc(F)c2)cc1 recorded_result=0.25

Values from ChEMBL document CHEMBL1828555
